Tested on: galium (catchweed bedstraw, Galium aparine)
protocolText: Test A postemergence, galium
Format: in vivo
conditionNotes: 500 g ai/ha, 0 to 100 scale
Measured Plant response rating, Galium, listed per entry for reference.
Give your answer as a number; write no unit.

As a guide, the following entries are already answered.
                                   compound                   propertyname  value
0  O=C1NCC(C#Cc2ccc(F)cc2)C1C(=O)Nc1ccccc1F (stereo not drawn) [Compound 19]  Plant response rating, Galium      0
1  O=C1NCC(Cc2ccc(C(F)(F)F)cc2)C1C(=O)Nc1cccc(F)c1F (stereo not drawn) [Compound 7]  Plant response rating, Galium      0
2  Cc1cccc(C#CC2CNC(=O)C2C(=O)Nc2ccccc2F)c1 (stereo not drawn) [Compound 21]  Plant response rating, Galium      0
3  O=C1NCC(/C=C/c2ccc(F)cc2)C1C(=O)Nc1ccccc1F (stereo not drawn) [Compound 27]  Plant response rating, Galium      0
4  Cc1cccc(C#CC2CNC(=O)C2C(=O)Nc2ccc(F)c(F)c2F)c1 (stereo not drawn) [Compound 23]  Plant response rating, Galium     20

Exam item: # get_value(readout='Plant response rating, Galium', item= O=C1NCC(/C=C/c2ccccc2F)C1C(=O)Nc1ccccc1F (stereo not drawn) [Compound 34] )
Marked response: 0

Exam item: Same question for O=C1NCC(/C=C/c2cccc(F)c2)C1C(=O)Nc1cccc(F)c1F (stereo not drawn) [Compound 30] please.
Marked response: 20

Exam item: And the next one, O=C1NCC(Cc2cccc(F)c2F)C1C(=O)Nc1ccccc1C(F)(F)F (stereo not drawn) [Compound 10] ?
Marked response: 0

Exam item: // same read-out, input: O=C(Nc1cccc(C(F)(F)F)c1)C1CNC(=O)C1C(=O)Nc1cccc(F)c1F (stereo not drawn) [Compound 18]
Marked response: 50
